Entry source: patent US20220175761A1

pIC50 values for the compounds below.
system: MDA-MB-468 (human breast cancer cells); assay: Inhibition of cell line proliferation, CCK8; assay type: cell-based; conditions: MDA-MB-468, 68-72 hours, CCK8
Square brackets hold non-standard residues; d marks the D form. Peptide text beside a SMILES is read from it. * marks the point of attachment. Dolaproine = CO[C@@H]([C@@H]1CCCN1)[C@@H](C)C(=O)O; Dil = CC[C@H](C)[C@H](NC)[C@@H](CC(=O)O)OC; X1 = C[C@@H](N*)[C@@H](O)c1ccccc1; NMeV = CN[C@H](C(=O)O)C(C)C
Note on pIC50: it is the negative log10 of concentration, concentration in mol/L.

Sample answers from the record:
compound="CC[C@@]1(O)C(=O)OCc2c1cc1n(c2=O)Cc2c-1nc1cc(F)c(C)c3c1c2[C@@H](NC(=O)CO)CC3 [Dxd0017, reference compound]" observed_property=pIC50 val=8.21
compound="CCc1c2c(nc3ccc(O)cc13)-c1cc3c(c(=O)n1C2)COC(=O)[C@]3(O)CC [SN-38, reference compound]" observed_property=pIC50 val=7.87

Input line: Answer briefly: pIC50 recorded on MDA-MB-468 (human breast cancer cells) for CC[C@H](C)[C@@H]([C@@H](CC(=O)N1CCC[C@H]1[C@H](OC)[C@@H](C)C(=O)N[C@H](C)[C@@H](O)c1ccccc1)OC)N(C)C(=O)[C@@H](NC(=O)[C@@H](NC)C(C)C)C(C)C [MMAE, monomethyl auristatin E] (H-[NMeV]V[Dil][Dolaproine]-X1)
Output line: 8.70

Input line: Answer briefly: pIC50 recorded on MDA-MB-468 (human breast cancer cells) for CC[C@@]1(O)C(=O)OCc2c1cc1n(c2=O)Cc2c-1nc1cc(F)c(C)c3c1c2[C@@H](NC(=O)COCNC(=O)CNC(=O)[C@H](Cc1ccccc1)NC(=O)CNC(=O)CNC(=O)CCCCCN1C(=O)CC(SC[C@H](NC(=O)[C@H](CCCCN)NC(=O)[C@H](CC(=O)O)NC(=O)[C@H](CC(=O)O)NC(=O)Cc2ccc(CNC(=O)NCCCC[C@H](NC(=O)N[C@@H](CCC(=O)O)C(=O)O)C(=O)O)cc2)C(=O)N[C@@H](CCCCNC(=O)CC[C@H](NC(=O)c2ccc(NCc4cnc5[nH]c(N)nc(=O)c5n4)cc2)C(=O)O)C(N)=O)C1=O)CC3 (stereo partly shown) [CR19428]
Output line: 5.97
